METHOD DESCRIPTION: SF-1 AF-2 mutant transactivation artefacts – cell-based, luminescence, counter-screen for DAX1 inhibitor project (AID 652136);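 note: 0% = DAX-1 transfected cells with DMSO and 100% = cells without DAX-1 with DMSO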
CONDITION LABEL: HEK293 StAR-luciferase, SF-1 AF2 mutant, at 6.8 µM, stronger effect = higher value
Hit rate of the full screen: of about 2,400 compounds, about 1,900 (79%) were called active. The set was probably picked from earlier hits. The list is a sample of the results.
EXPERIMENTAL ENDPOINT: inhibition

Item: Clc1ccc(Nc2nc(-c3cccs3)cs2)nc1 | inhibition: 7.52% (active)

Item: Cc1sc(NC(=O)c2ccc3ncsc3c2)c(C(N)=O)c1C | inhibition: 5.5% (active)

Item: CCOC(=O)c1c(S(=O)(=O)Nc2ccc(CN3CCC(C)CC3)cc2)c(C)n(C)c1C | inhibition: 1.43% (inactive)

Item: O=C(c1cnn2ccccc12)N1CCc2ccccc21 | inhibition: 6.23% (active)

Item: O=C(O)c1cccc(N=NN2CCCCCC2)c1 | inhibition: 8.65% (active)

Item: CN1OC[C@@H]2CN[C@H](c3ccc(-c4ccccc4)cc3)C[C@@H]21 | inhibition: 5.72% (active)

---

METHOD DESCRIPTION: SF-1 AF-2 mutant transactivation artefacts – cell-based, luminescence, counter-screen for DAX1 inhibitor project (AID 652136);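 note: 0% = DAX-1 transfected cells with DMSO and 100% = cells without DAX-1 with DMSO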
CONDITION LABEL: HEK293 StAR-luciferase, SF-1 AF2 mutant, at 6.8 µM, stronger effect = higher value
Among all 2,400 compounds or so, about 1,900 (79%) were called active. So high a share suggests a set chosen from earlier hits. Not all results are given here.
Can you tell me inhibition for the items I'm about to list?
Give a bare numeral; the unit % is implied.

Item: Cc1ccccc1OCC(=O)Nc1ccc2c(c1)ncn2C | inhibition: 5.06

Item: O=C(Nc1ccccc1)c1ccc2c(c1)OCCCO2 | inhibition: 7.83

Item: Cn1ccnc1SCC(=O)Nc1ccc2c(c1)OCCO2 | inhibition: 5.39

Item: NS(=O)(=O)c1ccc2nc(NC(=O)C3=COCCO3)sc2c1 | inhibition: 5.19

Item: O=c1oc(/C=C/c2ccccc2)nc2ccccc12 | inhibition: 7.24

Item: COc1ccccc1Cc1c(-c2ccc(F)cc2)nc2ccc(C)cn12 | inhibition: 3.36

Item: CN1CCN(C(=O)c2ccc(-c3ccc(Br)cc3)o2)CC1 | inhibition: 4.28

Item: CN1CCN(c2ccc(NC(=O)c3ccc4c(c3)OCCO4)cc2Cl)CC1 | inhibition: 4.72

Item: O=C(NC(=S)Nc1ccc(Cl)cc1Cl)C1CC1 | inhibition: 3.76

Item: Nc1c(C(=O)Nc2ccc3c(c2)OCCO3)nnn1Cc1ccccc1 | inhibition: 7.14

Item: CC(C)(O)C#Cc1ccc(CNC[C@H]2O[C@@H](n3cnc4c(=O)[nH]c(N)nc43)[C@H](O)[C@@H]2O)s1 | inhibition: -0.84

Item: Cc1ccc(-n2cc3ccc([N+](=O)[O-])cc3n2)cc1 | inhibition: 6.18

Item: CC(C)c1ccc(C=NNc2ccc([N+](=O)[O-])cn2)cc1 | inhibition: 7.98

Item: CC(C)Cc1cc(C(=O)NCCc2ccccc2)no1 | inhibition: 4.55

Item: O=C(Nc1ccc(NC(=O)c2cccs2)cn1)c1ccco1 | inhibition: 6.87

Item: CCOc1ccc(-c2nnc(-c3ccco3)o2)cc1 | inhibition: 3.8

Item: COc1ccc2nc(-c3ccccn3)ccc2c1 | inhibition: 5.03

Item: CCSc1nnc(NC(=O)c2ccc(C)cc2)s1 | inhibition: 6.21

Item: CC(Oc1ccccc1[N+](=O)[O-])C(=O)N/N=C/c1ccoc1 (configuration not stated) | inhibition: -0.59

Item: CC(C)c1ccc(Nc2nnc(SCC(=O)c3nnc(-c4ccccc4)o3)s2)cc1 | inhibition: 5.91

Item: O=[N+]([O-])c1ccc2oc(-c3cccc(O)c3)nc2c1 | inhibition: 8.65

Item: O=C(NCC1CCCO1)c1cc2c(s1)CCCC2 (configuration not stated) | inhibition: 4.63

Item: CC(C)c1ccc(Nc2ncccc2C#N)cc1 | inhibition: 5.42

Item: CSCCC(NC(=O)c1ccco1)C(=O)Nc1cc(C)ccn1 (configuration not stated) | inhibition: 7.83

Item: Cc1ccccc1Nc1nc(N)nc(CSc2ccccc2)n1 | inhibition: 9.51

Item: Fc1ccc2cnc(-c3ccccc3)cc2c1 | inhibition: 5.1

Item: Nc1ccc(C(=O)Nc2ccccc2N)cc1 | inhibition: 42.6

Item: O=c1c2c(nc3cc(-c4cccc(Cl)c4)[nH]n13)CCCC2 | inhibition: 5.64

Item: Cc1ccc(N/C=C/C(=O)c2ccccc2)cc1C | inhibition: 4.16

Item: O=C(Nc1ncccc1O)c1ccc(C(=O)c2ccccc2)cc1 | inhibition: 35.8

Item: Cc1cc(C(=O)NCCc2ccc(Cl)cc2)c(C)o1 | inhibition: 2.83

Item: NC(=O)CSc1nnc(NC(=O)c2ccc3ccccc3c2)s1 | inhibition: 7.69

These data points were gathered from PubChem BioAssay AID652136.
